System: green foxtail (Setaria viridis, SETVI)
assay_remarks: Pre-emerge test, greenhouse herbicide activity screening
Assay type: in vivo
experimental_conditions: 63 g ai/ha; phytotoxicity rating 0-100, 14 days after application
Rule: Pre-emerge Herbicidal Activity SETVI below 80 gives fulfilled. Equal to or above 80 gives not fulfilled.

| compound | answer_label |
| --- | --- |
| COc1c(Cl)cc(F)c(-n2c(=O)cc(C(F)(F)F)n(C)c2=O)c1NC(=O)OCc1ccc(F)cc1 | not fulfilled |
| Cc1c(Cl)cc(F)c(-n2c(=O)cc(C(F)(F)F)n(C)c2=O)c1NC(=O)OCc1ccccc1Cl | not fulfilled |
| COc1c(Cl)cc(F)c(-n2c(=O)cc(C(F)(F)F)n(C)c2=O)c1NC(=O)OCc1ccc(C)c(C)c1 | fulfilled |
| COc1c(Cl)cc(F)c(-n2c(=O)cc(C(F)(F)F)n(C)c2=O)c1NC(=O)OCc1ccc(C(C)C)cc1 | fulfilled |
| Cn1c(C(F)(F)F)cc(=O)n(-c2ccc(Cl)cc2NC(=O)Oc2ccccc2)c1=O | fulfilled |
| CCOC(=O)C(C)Oc1c(Cl)cc(F)c(-n2c(=O)cc(C(F)(F)F)n(C)c2=O)c1NC(=O)c1ccc2ccccc2c1 (stereo not drawn) | fulfilled |
| COc1c(Cl)cc(F)c(-n2c(=O)cc(C(F)(F)F)n(C)c2=O)c1NC(=O)N(Cc1ccccc1)c1ccccc1 | fulfilled |
| CCOC(=O)COc1c(Cl)cc(F)c(-n2c(=O)cc(C(F)(F)F)n(C)c2=O)c1NC(=O)C=Cc1ccccc1 | fulfilled |

Origin of values: patent US6355799B1
